tested_system: T1, TNFR1 (Homo sapiens, UniProt P19438)
T1 chain: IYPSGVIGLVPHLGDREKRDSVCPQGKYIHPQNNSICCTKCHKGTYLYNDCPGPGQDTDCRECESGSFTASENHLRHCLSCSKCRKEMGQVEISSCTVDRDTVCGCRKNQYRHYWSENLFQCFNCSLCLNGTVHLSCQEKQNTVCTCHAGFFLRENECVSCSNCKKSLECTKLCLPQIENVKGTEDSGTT
test_protocol: yeast display SC50
assay_endpoint: apparent Kd (screen) (nM)

K69H (designed binder) SMEEEVEKAAKEYEKKKKEAIEKHLEKLKAKDKEAAERFLKELEEAAKEYAKDEAKTMSEEEAKRRAKHYKEKVLLSELSEEEQKEIKEAEEKLVRTILKYVEEAAK : 0.49

A. E12G (designed binder) SMEEEVEKAAKGYEKKKKEAIEKHLEKLKAKDKEAAERFLKELEEAAKEYAKDEAKTMSEEEAKRRAKKYKEKVLLSELSEEEQKEIKEAEEKLVRTILKYVEEAAK
B. T57H (designed binder) SMEEEVEKAAKEYEKKKKEAIEKHLEKLKAKDKEAAERFLKELEEAAKEYAKDEAKHMSEEEAKRRAKKYKEKVLLSELSEEEQKEIKEAEEKLVRTILKYVEEAAK
*Q* Parameter metric = apparent Kd (screen). Return the lower-valued option from A and B . Answer with the label corresponding to your selection.
*A* B

Provenance of the data: paper PMC12416549
